Molecular target: 5-HT7A (Homo sapiens, UniProt P34969)
Sequence (P34969 other isoform, or with tags, fused parts or gaps): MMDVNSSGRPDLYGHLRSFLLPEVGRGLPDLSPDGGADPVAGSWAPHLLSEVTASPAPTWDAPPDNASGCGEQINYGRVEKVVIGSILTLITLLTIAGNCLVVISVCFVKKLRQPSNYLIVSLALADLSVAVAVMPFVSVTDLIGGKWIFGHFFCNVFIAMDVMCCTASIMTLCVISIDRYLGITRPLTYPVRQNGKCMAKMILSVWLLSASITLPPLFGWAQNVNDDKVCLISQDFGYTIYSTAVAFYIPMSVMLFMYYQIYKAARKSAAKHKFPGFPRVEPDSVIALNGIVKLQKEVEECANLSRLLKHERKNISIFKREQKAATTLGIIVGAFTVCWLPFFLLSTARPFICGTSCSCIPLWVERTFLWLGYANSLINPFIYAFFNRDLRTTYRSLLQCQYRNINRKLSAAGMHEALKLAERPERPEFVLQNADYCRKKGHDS
Assay: Radioligand binding in vitro assay, 5-HT7A
experimental-readout: pKi
Answer as the number alone; pKi is minus log10 of concentration in mol/L.

Name the recorded pKi for CN(C)CCc1c[nH]c2ccccc12 [N,N-dimethyltryptamine, reference compound] .
7.82

----------
Molecular target: 5-HT2A (Homo sapiens, UniProt P28223)
Sequence (P28223 whole entry): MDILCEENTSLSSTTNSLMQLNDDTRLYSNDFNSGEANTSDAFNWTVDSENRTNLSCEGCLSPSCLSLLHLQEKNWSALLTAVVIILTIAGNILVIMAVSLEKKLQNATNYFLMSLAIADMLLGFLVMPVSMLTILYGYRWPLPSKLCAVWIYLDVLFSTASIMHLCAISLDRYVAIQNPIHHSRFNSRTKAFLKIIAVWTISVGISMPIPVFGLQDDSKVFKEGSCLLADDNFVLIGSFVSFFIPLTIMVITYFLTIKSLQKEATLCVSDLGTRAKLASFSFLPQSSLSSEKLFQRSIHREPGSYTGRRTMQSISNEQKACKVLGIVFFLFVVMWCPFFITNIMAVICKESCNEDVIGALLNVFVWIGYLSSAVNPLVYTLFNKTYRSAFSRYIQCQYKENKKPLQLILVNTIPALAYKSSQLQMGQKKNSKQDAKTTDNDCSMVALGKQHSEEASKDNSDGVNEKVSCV
experimental-readout: Ki (µM)
Please give a number only; it is taken to be in µM.

molecule | unit-text | obs-value
CC(=O)Nc1cccc2[nH]cc(CCN(C)C)c12 [drawing 8] | µM | 3.4

Next molecule, please.
Name the recorded Ki for CN(C)CCc1c(Br)[nH]c2ccccc12 [drawing 2] .
0.417
